- Procedure summary: melting temperature; fluorescence melt of hairpins on a sequencing array, two-state fit, raised by 9.35 °C to match UV melts
- Measurement parameters: sodium 0.088 M
Mark false for Tm values under 50 °C, and true for everything at or above.

Textbook exercise: given the entry GAGTCCGAAAGGAGGCTC ((((((....)))..))) , state whether its Tm is greater than or equal to 50 °C.
false

Textbook exercise: given the entry GCTAGCCGAAAGGCGAGC (((.(((....))).))) , state whether its Tm is greater than or equal to 50 °C.
true

Textbook exercise: given the entry GACCAGGCGAAAGCCGTC (((..(((....)))))) , state whether its Tm is greater than or equal to 50 °C.
false

Textbook exercise: given the entry GCTCTGGCGAAAGCCAGC (((..(((....)))))) , state whether its Tm is greater than or equal to 50 °C.
false

Textbook exercise: given the entry GGCAACGAAAGTTGGGCC ((((((....)))..))) , state whether its Tm is greater than or equal to 50 °C.
false

----------
- Procedure summary: melting temperature; fluorescence melt of hairpins on a sequencing array, two-state fit, raised by 9.35 °C to match UV melts
- Measurement parameters: sodium 0.088 M
Assay readout: Tm (°C)
Hi! Could you send only the number? It should be in °C, unit omitted.

Record summary for GAAGCGGGAAACTGCTTC (((((.(....).))))) : reported Tm = 53

Record summary for GATCCCTCGCGGGATC ((((((....)))))) : reported Tm = 59.6

Record summary for GACTGGGGAAACCTGGTC (((..((....))..))) : reported Tm = 38.9

Record summary for CGAGTCCGGAAACGGTCG (((..(((....)))))) : reported Tm = 42.4

Record summary for GGTGTCGAAAGACATACC ((((((....)))..))) : reported Tm = 43.5

Record summary for ACGGTGAAAACCGT (((((....))))) : reported Tm = 55

Record summary for GCGAAGTATCGC ((((....)))) : reported Tm = 46.2

Record summary for GATCATAAATATGATC ((((((....)))))) : reported Tm = 45.2

Record summary for GCCCCACGAAAGTGTGGC (((.(((....))).))) : reported Tm = 57.9

Record summary for GTAGCACGAAAGTGATAC (((.(((....))).))) : reported Tm = 58.4

Record summary for GTCAGATCGAAAGATGAC (((..(((....)))))) : reported Tm = 38.1

Record summary for GCAACTGGAAACAGTTAC (.(((((....))))).) : reported Tm = 36.3

Record summary for GATCACCCCAGTGATC ((((((....)))))) : reported Tm = 60

Record summary for GATCAACCTTTTGATC ((((((....)))))) : reported Tm = 41.8

Record summary for GGCAGTGGAAACACCACC ((..(((....)))..)) : reported Tm = 29.5

Record summary for GATCCGTGCCGGATC ((((((...)))))) : reported Tm = 57.9

Record summary for GATCGGAATACCGATC ((((((....)))))) : reported Tm = 56.6

Record summary for GACGCAGGAAACCGCGTC (((((.(....).))))) : reported Tm = 56.9

Record summary for GCTACTGGAAACAGTGGC ((.((((....)))).)) : reported Tm = 51.7

Record summary for GACACCGAAAGGTGCGTC ((((((....)))..))) : reported Tm = 45.7

Record summary for GGGGCTGGAAACAGCTCC ((.((((....)))).)) : reported Tm = 57.7

Record summary for GCTATCGAAAGATGTAGC ((((((....)))..))) : reported Tm = 36.9

Record summary for GCTGAGCGAAAGCCCAGC ((((.((....)).)))) : reported Tm = 63.9

Record summary for GATCCAACGTGGATC ((((((...)))))) : reported Tm = 49.2

Record summary for GGTTCCGGAAACGAAACC ((((.((....)).)))) : reported Tm = 42.9

Record summary for GATCGCCTAAGCGATC ((((((....)))))) : reported Tm = 68
